- Tested on: Fibroblast
- experiment-summary: Incucyte cell viability with human fibroblast; further: unitless GR value; below 1 slowed growth and below 0 cell loss
- Format: toxicity, cell-based
- test-context: 12 h, 10 µM, compound concentration 10 uM, replicate number 2, timepoint 12 hours
Growth Rate for assorted compounds
observed-property: Growth Rate

[[record]]
compound_string = "CN(CCN1CCC(OC(=O)Nc2ccccc2-c2ccccc2)CC1)C(=O)c1ccc(CN2CCC(C(N)=O)CC2)cc1"
recorded_result = 0.65

[[record]]
compound_string = "CC(C)n1cc(-c2ccc(N3CCN(C)CC3)c(NC(=O)c3ccc(-c4ccncc4)o3)c2)cn1"
recorded_result = 0.57

[[record]]
compound_string = "Br.Br.c1ncc(CC2CCNCC2)[nH]1"
recorded_result = 0.81

[[record]]
compound_string = "Cc1ccccc1C#Cc1ccc(CCC(=O)O)cc1"
recorded_result = 0.32

[[record]]
compound_string = "CN[C@@H](C)C(=O)N[C@H](C(=O)N1CCC[C@H]1C(=O)Nc1snnc1-c1ccccc1)C1CCCCC1"
recorded_result = -0.17

[[record]]
compound_string = "Cn1cnc(-c2cc3nccc(Oc4ccc(NC(=S)NC(=O)Cc5ccccc5)cc4F)c3s2)c1"
recorded_result = 0.3

[[record]]
compound_string = "Cc1c(C(=O)NN2CCCCC2)nn(-c2ccc(Cl)cc2Cl)c1-c1ccc(Cl)cc1"
recorded_result = 0

[[record]]
compound_string = "COc1cc(Br)c(S(=O)(=O)Nc2ccc(C(F)(F)F)c(O[C@@H]3CCN(C)C3)c2)cc1OC"
recorded_result = -0.22

[[record]]
compound_string = "Cl.O=C(O)c1cc(-c2ccc(C3CCNCC3)cc2)c2ccc(-c3ccc(C(F)(F)F)cc3)cc2c1"
recorded_result = 0.42

